- test-target: NAD-dependent protein deacetylase sirtuin-2 (Homo sapiens) (UniProt Q8IXJ6)
- Sequence (whole entry): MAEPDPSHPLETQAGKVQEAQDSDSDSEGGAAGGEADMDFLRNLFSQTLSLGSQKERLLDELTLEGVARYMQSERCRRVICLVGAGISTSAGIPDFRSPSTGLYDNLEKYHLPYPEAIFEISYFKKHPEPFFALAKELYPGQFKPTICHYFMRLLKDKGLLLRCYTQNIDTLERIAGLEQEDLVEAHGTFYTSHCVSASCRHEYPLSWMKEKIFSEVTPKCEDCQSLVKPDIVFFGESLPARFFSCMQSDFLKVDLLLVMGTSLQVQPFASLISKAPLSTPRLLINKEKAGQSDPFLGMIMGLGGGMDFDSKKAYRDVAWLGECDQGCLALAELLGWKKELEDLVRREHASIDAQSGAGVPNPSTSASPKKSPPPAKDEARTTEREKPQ
- assay-procedure: Inhibition of human recombinant SIRT2 at 60 uM
readout-kind: inhibition (%)

// solved cases for inhibition follow
• O=c1[nH]c(=S)[nH]c(-c2ccc(Cl)cc2)c1Cc1c(O)ccc2ccccc12 = 20.1
• O=c1[nH]c(=S)[nH]c(-c2ccccc2)c1Cc1cc(-c2ccccc2)ccc1O = 52.7
• O=c1[nH]c(=S)[nH]c(-c2cccc(Cl)c2)c1Cc1c(O)ccc2ccccc12 = 7.6

a = Cn1c(-c2ccccc2)c(Cc2c(O)ccc3ccccc23)c(=O)[nH]c1=S
b = O=c1[nH]c(=S)[nH]c(-c2ccc(Br)cc2)c1Cc1c(O)ccc2ccccc12
Prompt line: // compare: a vs b , metric inhibition, want the smaller To answer, give the label that identifies your chosen option.
Response line: b

1 = CCCCn1c(-c2ccccc2)c(Cc2c(O)ccc3ccccc23)c(=O)[nH]c1=S
2 = O=c1[nH]c(=S)[nH]c(-c2cccc(Br)c2)c1Cc1c(O)ccc2ccccc12
Prompt line: Recorded inhibition values differ for 1 and 2 ; which one is higher? To answer, give the label that identifies your chosen option.
Response line: 1
(1: 97.6%, 2: 6.6%)

P = CCCn1c(-c2ccccc2)c(Cc2c(O)ccc3ccccc23)c(=O)[nH]c1=S
Q = O=c1[nH]c(=S)[nH]c(-c2ccc(I)cc2)c1Cc1c(O)ccc2ccccc12
Prompt line: // compare: P vs Q , metric inhibition, want the smaller To answer, give the label that identifies your chosen option.
Response line: Q
(Q: 7.7%, P: 94.7%)

====

- test-target: NAD-dependent protein deacetylase sirtuin-1 (Homo sapiens) (UniProt Q96EB6)
- Sequence (Q96EB6 whole entry): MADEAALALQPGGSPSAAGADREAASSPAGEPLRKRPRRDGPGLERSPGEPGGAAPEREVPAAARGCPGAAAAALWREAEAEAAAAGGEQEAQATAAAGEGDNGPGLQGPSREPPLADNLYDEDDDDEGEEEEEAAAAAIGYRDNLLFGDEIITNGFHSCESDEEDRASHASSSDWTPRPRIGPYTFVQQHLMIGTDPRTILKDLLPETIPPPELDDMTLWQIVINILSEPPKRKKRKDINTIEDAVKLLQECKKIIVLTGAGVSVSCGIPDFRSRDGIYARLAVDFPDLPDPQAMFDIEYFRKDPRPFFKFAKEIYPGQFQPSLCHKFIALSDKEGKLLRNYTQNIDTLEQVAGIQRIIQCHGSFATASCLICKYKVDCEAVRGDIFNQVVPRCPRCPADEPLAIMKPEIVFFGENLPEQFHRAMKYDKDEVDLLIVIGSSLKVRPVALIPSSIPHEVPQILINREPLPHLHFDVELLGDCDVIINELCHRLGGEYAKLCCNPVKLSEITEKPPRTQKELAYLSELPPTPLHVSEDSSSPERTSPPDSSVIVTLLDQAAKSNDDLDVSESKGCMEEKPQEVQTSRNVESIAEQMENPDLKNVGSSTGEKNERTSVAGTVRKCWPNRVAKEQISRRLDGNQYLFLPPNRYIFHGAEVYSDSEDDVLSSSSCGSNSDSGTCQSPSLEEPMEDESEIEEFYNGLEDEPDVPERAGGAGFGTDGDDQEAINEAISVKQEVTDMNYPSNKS
- assay-procedure: Inhibition of human recombinant SIRT1 at 60 uM
readout-kind: inhibition (%)

// solved cases for inhibition follow
- O=C(c1ccccc1[N+](=O)[O-])c1cc2c(ccc3ccccc32)oc1=O: 26
- CCCn1c(-c2ccccc2)c(Cc2c(O)ccc3ccccc23)c(=O)[nH]c1=S: 25
- O=C1Oc2ccc3ccccc3c2CC1C(=O)c1ccc(F)cc1 (stereo unspecified): 12.3

1 = O=C(c1cccc(I)c1)c1cc2c(ccc3ccccc32)oc1=O
2 = O=C(c1cccc(Cl)c1)c1cc2c(ccc3ccccc32)oc1=O
3 = Cc1cccc(-c2[nH]c(=S)[nH]c(=O)c2Cc2c(O)ccc3ccccc23)c1
Prompt line: Sequence the entries by inhibition, beginning with the highest number. The response must list the labels following the requested ordering.
Response line: 3, 1, 2

====

- test-target: NAD-dependent protein deacetylase sirtuin-2 (Homo sapiens, UniProt Q8IXJ6)
- Sequence (Q8IXJ6 whole entry): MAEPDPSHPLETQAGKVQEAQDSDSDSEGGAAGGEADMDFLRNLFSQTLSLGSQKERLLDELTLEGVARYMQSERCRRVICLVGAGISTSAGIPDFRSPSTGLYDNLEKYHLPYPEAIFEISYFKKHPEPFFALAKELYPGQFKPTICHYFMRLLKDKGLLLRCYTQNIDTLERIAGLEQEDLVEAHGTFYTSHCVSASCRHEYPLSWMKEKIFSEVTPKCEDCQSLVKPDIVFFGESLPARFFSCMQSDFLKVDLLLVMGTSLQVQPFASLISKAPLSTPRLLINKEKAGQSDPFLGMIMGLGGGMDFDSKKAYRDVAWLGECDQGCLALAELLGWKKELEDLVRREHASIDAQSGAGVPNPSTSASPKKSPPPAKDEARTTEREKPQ
- assay-procedure: Inhibition of human recombinant SIRT2
readout-kind: IC50 (nM)
Form entry: value (nM) — number only.

Prompt line: Reported IC50 for `CCCCn1c(-c2ccccc2)c(Cc2c(O)ccc3ccccc23)c(=O)[nH]c1=S` : what is it?
Response line: 1000
